- SYSTEM: T1, GFP-9S library array, motif 4 ND N98R;D124T (synthetic construct, N98R;D124T)
- T1 chain: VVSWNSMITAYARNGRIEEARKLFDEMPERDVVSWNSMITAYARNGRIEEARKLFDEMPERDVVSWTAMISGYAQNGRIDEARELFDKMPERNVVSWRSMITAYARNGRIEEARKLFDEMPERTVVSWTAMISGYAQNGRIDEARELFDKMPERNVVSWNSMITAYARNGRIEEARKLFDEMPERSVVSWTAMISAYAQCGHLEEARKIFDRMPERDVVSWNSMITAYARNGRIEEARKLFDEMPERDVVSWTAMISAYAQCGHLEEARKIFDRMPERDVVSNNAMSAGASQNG
- METHOD: high-throughput RNA pulldown from lysate on Ni-NTA beads; HRP: 50 mM Tris pH 8, 150 mM NaCl, 1 mM beta-mercaptoethanol, 50 ug/ml BSA, 3 ug/ml yeast RNA, 0.5% heparin; ITC and FP: Tris pH 8, 200 mM KCl, 5% glycerol; MST: 50 mM Tris pH 8, 200 mM NaCl, 1 mM DTT, BSA, heparin, 0.05% Tween 20
- EXPERIMENTAL SETUP: tags: N-terminal His-eGFP; label: 5' IRDye 800CW
Quick reference for Kd among some binders
VALUE KIND: Kd (nM)

BINDER	VALUE KIND	OBSERVED
AUUAAACGUGA (ssRNA) [IR-rpoA-A]	Kd	173
AUUAUACGUGA (ssRNA) [IR-rpoA-U]	Kd	85.9
